Molecular target: T1, ZFP SBS#1243 (synthetic)
T1 chain: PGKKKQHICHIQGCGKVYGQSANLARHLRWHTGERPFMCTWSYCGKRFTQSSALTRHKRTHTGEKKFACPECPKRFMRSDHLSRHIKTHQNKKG
Test: EMSA
Conditions: tags: MBP fusion
measured_property: pKd
To interpret pKd, take it as minus log10 of a concentration measured in moles per litre.

Using known records, supply pKd for GGGGTTGAA (dsDNA) DNA 1: GGGGTTGAA DNA 2: TTCAACCCC 10.00
